Target: interaction between Bcl-2 and Bax (Homo sapiens, UniProt P10415)
Construct: expressed in transfected cells; host or cells: Hela cells
Sequence (P10415 whole entry): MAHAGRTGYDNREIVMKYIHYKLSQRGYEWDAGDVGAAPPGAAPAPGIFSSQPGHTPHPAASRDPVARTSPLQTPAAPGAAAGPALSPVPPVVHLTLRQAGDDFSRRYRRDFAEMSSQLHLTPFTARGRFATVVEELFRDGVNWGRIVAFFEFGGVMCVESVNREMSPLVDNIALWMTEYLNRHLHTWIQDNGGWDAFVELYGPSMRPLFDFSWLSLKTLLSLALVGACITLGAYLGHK
Experiment: intracellular fluorescence polarization energy transfer (FRET), Hela cells transfected with Bcl-2-CFP and Bax-YFP
Format: cell-based
Conditions: goes with the time of E12
Assay Endpoint: Concentration at which the compound interfered with the interaction between Bcl-2 and Bax (µM)
The answer is to be given in µM; state only the numeric part.

Tested system interaction between Bcl-2 and Bax (Homo sapiens, UniProt P10415); Concentration at which the compound interfered with the interaction between Bcl-2 and Bax recorded for `N#CC1=C2C(=NC1=O)c1cccc3cccc2c13` was 0.1

The observed Concentration at which the compound interfered with the interaction between Bcl-2 and Bax for `N#CC1=C2C(=NC1=O)c1c(Sc3ccc(N)cc3)ccc3c(Sc4ccc(N)cc4)ccc2c13` when tested with interaction between Bcl-2 and Bax (Homo sapiens, UniProt P10415) stands at 1.0

Lab entry: interaction between Bcl-2 and Bax (Homo sapiens, UniProt P10415) assay, compound `N#CC1=C2C(=NC1=O)c1c(OCc3cccs3)ccc3cccc2c13` , Concentration at which the compound interfered with the interaction between Bcl-2 and Bax = 10.0

Record `N#CC1=C2C(=NC1=O)c1cccc3c(N4CCSCC4)ccc2c13` ; system interaction between Bcl-2 and Bax (Homo sapiens, UniProt P10415); Concentration at which the compound interfered with the interaction between Bcl-2 and Bax = 2

With interaction between Bcl-2 and Bax (Homo sapiens, UniProt P10415) as the test system, `N#CC1=C2C(=NC1=O)c1cccc3c(Sc4ccc(Br)cc4)ccc2c13` showed Concentration at which the compound interfered with the interaction between Bcl-2 and Bax of 0.5

// assay interaction between Bcl-2 and Bax (Homo sapiens, UniProt P10415), entry `N#CC1=C2C(=NC1=O)c1c(Sc3ccc(Br)cc3)ccc3c(Sc4ccc(Br)cc4)ccc2c13` , Concentration at which the compound interfered with the interaction between Bcl-2 and Bax value = 1.0

The reported interaction between Bcl-2 and Bax (Homo sapiens, UniProt P10415) Concentration at which the compound interfered with the interaction between Bcl-2 and Bax of `N#CC1=C2C(=NC1=O)c1ccc(Oc3ccccc3)c3cccc2c13` is 10.0

Noted Concentration at which the compound interfered with the interaction between Bcl-2 and Bax for `N#CC1=C2C(=NC1=O)c1c(Sc3ccc(N)cc3)ccc3cccc2c13` , tested on interaction between Bcl-2 and Bax (Homo sapiens, UniProt P10415): 0.2

Per the reported interaction between Bcl-2 and Bax (Homo sapiens, UniProt P10415) data, `N#CC1=C2C(=NC1=O)c1cccc3c(C(=O)c4cccc(F)c4)ccc2c13` has Concentration at which the compound interfered with the interaction between Bcl-2 and Bax of 10.0
